- experiment.notes: Cytotoxicity against mouse B16F0 cells assessed as cell viability at 200 uM after 72 hrs by MTT assay
- Format: cell-based
- condition.notes: read-out: Activity
# maps each entry to its viability at 72 h, 200 µM
Lab book: enter the figure in %, no units written.

Given the compound `O=c1c(O[C@@H]2O[C@H](CO)[C@@H](O[C@@H]3O[C@H](CO)[C@@H](O)[C@H](O)[C@H]3O)[C@H](O)[C@H]2O)c(-c2ccc(O)c(O)c2)oc2cc(O)cc(O)c12` , what is its reported viability at 72 h, 200 µM?
81.1

New cases:
Given the compound `O=c1c(O[C@@H]2O[C@H](CO)[C@@H](O[C@@H]3O[C@H](CO)[C@@H](O)[C@H](O)[C@H]3O)[C@H](O)[C@H]2O)c(-c2ccc(O[C@@H]3O[C@H](CO)[C@@H](O)[C@H](O)[C@H]3O)c(O)c2)oc2cc(O)cc(O)c12` , what is its reported viability at 72 h, 200 µM?
74.8

Given the compound O=c1c(O[C@@H]2O[C@H](CO)[C@@H](O)[C@H](O)[C@H]2O)c(-c2ccc(O)c(O)c2)oc2cc(O)cc(O)c12 [ISOQUERCETIN] , what is its reported viability at 72 h, 200 µM?
68.4

###

- experiment.notes: Cytotoxicity against mouse B16F0 cells assessed as cell viability at 6.25 uM after 72 hrs by MTT assay
- Assay type: cell-based
- condition.notes: read-out: Activity
# strict inequality: viability at 72 h, 6.25 µM < 90% yields 1.0, everything else yields 0.0

Does the reported viability at 72 h, 6.25 µM of the following compound sit strictly below 90%? COc1cc(O)c2c(=O)c(O)c(-c3ccc(OC)c(O)c3)oc2c1 [OMBUINE]
0.0

Does the reported viability at 72 h, 6.25 µM of the following compound sit strictly below 90%? COc1cc(O)c2c(=O)c(O)c(-c3ccc(O)c(O)c3)oc2c1 [RHAMNETIN]
0.0

Does the reported viability at 72 h, 6.25 µM of the following compound sit strictly below 90%? COc1ccc(-c2oc3cc(O)cc(O)c3c(=O)c2O)cc1O [TAMARIXETIN]
0.0

Does the reported viability at 72 h, 6.25 µM of the following compound sit strictly below 90%? COc1cc(O)c2c(=O)c(OC)c(-c3ccc(OC)c(O)c3)oc2c1 [AYANIN]
0.0

Does the reported viability at 72 h, 6.25 µM of the following compound sit strictly below 90%? `COc1cc(O)c2c(=O)c(OC)c(-c3ccc(O)c(O)c3)oc2c1`
1.0

###

# maps each entry to its Activity
- Tested on: B16-F0
- experiment.notes: Extracellular melanogenesis-stimulating activity in mouse B16F0 cells at 25 uM after 72 hrs by spectrophotometry relative to control
- Type: functional
Lab book: enter the figure in %, no units written.

Given the molecule `COc1cc(O)c2c(=O)c(O)c(-c3ccc(O)c(O)c3)oc2c1` , what is its reported Activity?
114.3

Given the molecule `CC(=O)OC[C@H]1O[C@@H](Oc2c(-c3ccc(O)c(O)c3)oc3cc(O)cc(O)c3c2=O)[C@H](OC(C)=O)[C@@H](OC(C)=O)[C@@H]1OC(C)=O` , what is its reported Activity?
101.5

Given the molecule `COc1cc(O)c2c(=O)c(OC)c(-c3ccc(OC)c(O)c3)oc2c1` , what is its reported Activity?
298.7

Given the molecule `COc1cc(O)c2c(=O)c(O)c(-c3ccc(OC)c(O)c3)oc2c1` , what is its reported Activity?
100.1

Given the molecule `COc1cc(O)c2c(=O)c(OC)c(-c3ccc(O)c(O)c3)oc2c1` , what is its reported Activity?
265.5

Given the molecule `CC(=O)Oc1c(-c2ccc(O)c(O)c2)oc2cc(O)cc(O)c2c1=O` , what is its reported Activity?
102.6

New cases:
Given the molecule `COc1ccc(-c2oc3cc(O)cc(O)c3c(=O)c2O)cc1O` , what is its reported Activity?
97.9

Given the molecule `COc1c(-c2ccc(O)c(O)c2)oc2cc(O)cc(O)c2c1=O` , what is its reported Activity?
130.8
